This collection of values is drawn from ChEMBL document CHEMBL4138122.

- Assayed System: Vascular cell adhesion protein 1 (Homo sapiens, UniProt P19320)
- Sequence (P19320 whole entry): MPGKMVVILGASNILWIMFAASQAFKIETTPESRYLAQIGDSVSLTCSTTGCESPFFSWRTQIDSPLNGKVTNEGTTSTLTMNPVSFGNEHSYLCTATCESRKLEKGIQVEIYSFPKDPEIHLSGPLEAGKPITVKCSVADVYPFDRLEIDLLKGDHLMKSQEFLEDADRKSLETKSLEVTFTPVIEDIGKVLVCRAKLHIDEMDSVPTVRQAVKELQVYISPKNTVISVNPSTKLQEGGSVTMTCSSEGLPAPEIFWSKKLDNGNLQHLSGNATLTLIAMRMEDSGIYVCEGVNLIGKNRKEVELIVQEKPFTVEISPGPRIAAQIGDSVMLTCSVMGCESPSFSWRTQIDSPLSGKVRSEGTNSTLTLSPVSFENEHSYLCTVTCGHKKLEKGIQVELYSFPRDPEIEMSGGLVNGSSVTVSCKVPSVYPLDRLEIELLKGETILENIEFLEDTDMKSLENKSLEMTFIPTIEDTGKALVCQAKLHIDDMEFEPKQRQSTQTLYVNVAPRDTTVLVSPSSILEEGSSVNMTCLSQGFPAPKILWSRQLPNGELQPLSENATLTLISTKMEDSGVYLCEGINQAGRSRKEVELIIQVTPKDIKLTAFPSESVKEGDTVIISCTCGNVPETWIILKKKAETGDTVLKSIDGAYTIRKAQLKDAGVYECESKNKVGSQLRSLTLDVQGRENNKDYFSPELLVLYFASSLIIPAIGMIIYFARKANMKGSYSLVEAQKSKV
pIC50: −log10 of the molar value.

Compound: O=C(O)CC1C2CCCC1CN(Cc1ccc3c(c1)Nc1nccnc1S3)C2 (stereo in doubt; 64c)
pIC50: 5.60
